# TEST_DESCRIPTION: inhibitors of TNFa-induced NFkB p65 translocation, primary screen, imaging, HUVEC, MLSMR starter and 10KST1 sets (AID 438);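 note: compound added about 3h40 before a 20 min TNFalpha stimulation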
# ASSAY_SETUP: HUVEC TNFa-induced p65 nuclear translocation; measured here: nuclei count (cytotoxicity indicator), at 2.08 µM
Entries are grouped by cell count into these classes: Low = under 300, Medium = from 300 up to 500, High = 500 and over

[
  {
    "COMPOUND": "COc1ccccc1N1CCN(c2nc3ccccc3nc2C(C#N)C(=O)OC(C)C)CC1 (stereo not drawn)",
    "CLASS": "High"
  },
  {
    "COMPOUND": "O=C(O)CCCc1nc(-c2ccccc2)no1",
    "CLASS": "High"
  },
  {
    "COMPOUND": "CCC(=O)Nc1ccc(NC(=O)c2ccccn2)cn1",
    "CLASS": "High"
  },
  {
    "COMPOUND": "COC(=O)c1ccccc1NC(=O)C1CCCCC1C(=O)O (stereo not drawn)",
    "CLASS": "Low"
  },
  {
    "COMPOUND": "CCN(C(C)=O)c1nnc(CSc2nc3ccccc3s2)s1",
    "CLASS": "High"
  },
  {
    "COMPOUND": "Cc1c(C(=O)NCc2ccoc2)oc2ccc3c(c12)C(=O)CC(C)(C)O3",
    "CLASS": "Low"
  },
  {
    "COMPOUND": "COc1ccc(N(C(=O)c2ccco2)S(=O)(=O)c2cc(OC)ccc2OC)cc1",
    "CLASS": "High"
  },
  {
    "COMPOUND": "COC(=O)c1cccc(NC(=O)C2COc3ccccc3O2)c1C (stereo not drawn)",
    "CLASS": "Medium"
  },
  {
    "COMPOUND": "COC(=O)Cn1cnc2sc(C)c(S(=O)(=O)N3CCC(C)CC3)c2c1=O",
    "CLASS": "High"
  },
  {
    "COMPOUND": "COc1ccc(OCCCC(=O)Nc2ccc3c(c2)OCCO3)cc1",
    "CLASS": "Medium"
  },
  {
    "COMPOUND": "O=C(CCN1CCOCC1)Nc1cccc(Br)c1",
    "CLASS": "Medium"
  },
  {
    "COMPOUND": "Cc1nc(CNS(=O)(=O)c2cc(C)c(C)cc2C)cs1",
    "CLASS": "Medium"
  }
]
